- MEASUREMENT TARGET: mouse FAP (Mus musculus)
- Construct: biotinylated His, Avi tag, mouse FAP (26-761, FAP-M82Q5); His; Avi tag (biotinylated); purchased AcroBiosystems FAP-M82Q5
- Sequence (P97321 26-761): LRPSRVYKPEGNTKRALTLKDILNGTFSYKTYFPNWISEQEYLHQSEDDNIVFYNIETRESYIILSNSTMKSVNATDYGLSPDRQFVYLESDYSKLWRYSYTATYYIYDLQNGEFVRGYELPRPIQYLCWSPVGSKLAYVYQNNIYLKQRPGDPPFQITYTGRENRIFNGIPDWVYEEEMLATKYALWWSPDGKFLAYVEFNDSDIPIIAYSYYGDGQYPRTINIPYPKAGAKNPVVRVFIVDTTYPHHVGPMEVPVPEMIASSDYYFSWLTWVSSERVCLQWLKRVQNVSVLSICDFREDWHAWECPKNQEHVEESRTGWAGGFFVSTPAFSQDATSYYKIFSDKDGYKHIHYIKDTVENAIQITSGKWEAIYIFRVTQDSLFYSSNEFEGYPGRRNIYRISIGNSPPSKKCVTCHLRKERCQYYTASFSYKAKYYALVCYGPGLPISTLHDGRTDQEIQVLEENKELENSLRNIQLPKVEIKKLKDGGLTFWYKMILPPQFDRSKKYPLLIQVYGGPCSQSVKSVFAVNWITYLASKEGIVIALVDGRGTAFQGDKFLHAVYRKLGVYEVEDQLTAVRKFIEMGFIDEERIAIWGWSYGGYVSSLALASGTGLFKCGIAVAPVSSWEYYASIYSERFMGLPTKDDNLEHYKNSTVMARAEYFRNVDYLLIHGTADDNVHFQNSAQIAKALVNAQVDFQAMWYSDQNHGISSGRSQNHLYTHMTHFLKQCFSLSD
- EXPERIMENT SUMMARY: Surface plasmon resonance (SPR) for peptide affinity, mouse FAP
- Type: binding
pKd: −log10 of the molar value. Starred links: 1 amine or outer side, 2 acyl side, 3 side chain; linkers in the order of their positions; H or OH if unused. Non-standard residues stand in square brackets, D forms with d. Primed or numbered codes have the meaning given here. *: point of attachment. F(4amPEG2NHDOTA-Lu) = lutetium complex of (S)-2,2',2''-(10-(1-(4-(2-amino-2-carboxyethyl)phenyl)-3,12-dioxo-5,8-dioxa-2,11-diazatridecan-13-yl)-1,4,7,10-tetraazacyclododecane-1,4,7-triyl)triacetic acid (Phe with 4-aminomethyl-PEG2-DOTA-Lu), O=C([O-])CN1CCN(CC(=O)[O-])CCN(CC(=O)NCCOCCOCC(=O)NCc2ccc(C[C@H](N[*:1])C(=O)[*:2])cc2)CCN(CC(=O)[O-])CC1.[Lu+3]; F(4amPEG2NHDOTA-Ga) = gallium complex of (S)-2,2',2''-(10-(1-(4-(2-amino-2-carboxyethyl)phenyl)-3,12-dioxo-5,8-dioxa-2,11-diazatridecan-13-yl)-1,4,7,10-tetraazacyclododecane-1,4,7-triyl)triacetic acid (Phe with 4-aminomethyl-PEG2-DOTA-Ga), O=C([O-])CN1CCN(CC(=O)[O-])CCN(CC(=O)NCCOCCOCC(=O)NCc2ccc(C[C@H](N[*:1])C(=O)[*:2])cc2)CCN(CC(=O)[O-])CC1.[Ga+3]; F(4OEtNHDOTA-Lu) = lutetium complex of (S)-2,2',2''-(10-(2-((2-(4-(2-amino-2-carboxyethyl)phenoxy)ethyl)amino)-2-oxoethyl)-1,4,7,10-tetraazacyclododecane-1,4,7-triyl)triacetic acid (Phe with 4-O-ethylamino-DOTA-Lu), O=C([O-])CN1CCN(CC(=O)[O-])CCN(CC(=O)NCCOc2ccc(C[C@H](N[*:1])C(=O)[*:2])cc2)CCN(CC(=O)[O-])CC1.[Lu+3]; F(4amPEG2NHDOTA-Lu)″ = lutetium (S)-2,2',2''-(10-(1-(4-(2-amino-2-carboxyethyl)phenyl)-3,12-dioxo-5,8-dioxa-2,11-diazatridecan-13-yl)-1,4,7,10-tetraazacyclododecane-1,4,7-triyl)triacetic acid, O=C([O-])CN1CCN(CC(=O)[O-])CCN(CC(=O)NCCOCCOCC(=O)NCc2ccc(C[C@H](N[*:1])C(=O)[*:2])cc2)CCN(CC(=O)[O-])CC1.[Lu+3]; F(4amDOTA-Lu) = lutetium complex of (S)-2,2',2''-(10-(2-((4-(2-amino-2-carboxyethyl)benzyl)amino)-2-oxoethyl)-1,4,7,10-tetraazacyclododecane-1,4,7-triyl)triacetic acid (Phe with 4-aminomethyl-DOTA-Lu), O=C([O-])CN1CCN(CC(=O)[O-])CCN(CC(=O)NCc2ccc(C[C@H](N[*:1])C(=O)[*:2])cc2)CCN(CC(=O)[O-])CC1.[Lu+3]; K(COpipzaa) = N6-(4-(carboxymethyl)piperazine-1-carbonyl)-L-lysine, O=C(NCCCC[C@H](N[*:1])C(=O)[*:2])N1CCN(CC(=O)[*:3])CC1; Q(Pyrro(2CN4F2)) = 2-amino-5-(2-cyano-4,4-difluoropyrrolidin-1-yl)-5-oxopentanoic acid; COpipzaa″ = 4-(carboxymethyl)piperazine-1-carbonyl on Lys N6, O=C(O)CN1CCN(C(=O)*)CC1; F4(METRIAZOLYLMENHDOTA-Lu) = Phe with 4-(methyl-triazolyl-methyl-NH-DOTA), Lu complex; COpipzaa = 4-(carboxymethyl)piperazine-1-carbonyl, O=C(O)CN1CCN(C(=O)*)CC1; F(4amPEG2NHRDOTAGA-Ga) = Phe with 4-aminomethyl-PEG2-NH-DOTAGA, Ga complex; DOTA(Lu) = O=C1CN2CCN3CCN(CC(=O)*)CCN(CC2)CC(=O)[O][Lu]([O]1)[O]C(=O)C3; X4 = 4‑(carboxymethyl)piperazine‑1‑carbonyl, O=C(O)CN1CCN(C(=O)*)CC1; F(4OEtNHRDOTAGA-Ga) = Phe with 4-O-ethyl-NH-DOTAGA, Ga complex; F(4OEtNHRDOTAGA-Lu) = Phe with 4-O-ethyl-NH-DOTAGA, Lu complex; hS(Pr) = O-propyl-L-homoserine, CCCOCC[C@H](N[*:1])C(=O)[*:2]; 3Pal(6-NH2) = Nc1ccc(C[C@H](N)C(=O)O)cn1; NMeF = CN[C@@H](Cc1ccccc1)C(=O)O; Ahp(2) = CCCCC[C@H](N)C(=O)O
Could you please report measured pKd for the items listed next?

Qu. What value of measured pKd is listed for Gly-Gly-NMePhe-F(4OEtNHRDOTAGA-Ga)-Ahp-Trp-Gly-Tyr-Asp-D-Pro (cyclo(GG[NMeF][F(4OEtNHRDOTAGA-Ga)][Ahp(2)]WGYD[dP]); also: Ga complex of DOTAGA) [Example C38] ?
Ans. 10.43

Qu. What value of measured pKd is listed for K(COpipzaa)-Gly-NMePhe-F(4OEtNHDOTA-Lu)-Ahp-Trp-Gly-Tyr-Asp-D-Pro (cyclo(K(COpipzaa″)G[NMeF][F(4OEtNHDOTA-Lu)][Ahp(2)]WGYD[dP]); also: Lu complex) [Example C25] ?
Ans. 9.47

Qu. What value of measured pKd is listed for Gly-Gly-NMePhe-F4(METRIAZOLYLMENHDOTA-Lu)-Ahp-Trp-Gly-Tyr-Asp-D-Pro (cyclo(GG[NMeF][F4(METRIAZOLYLMENHDOTA-Lu)][Ahp(2)]WGYD[dP]); also: Lu complex) [Example C14] ?
Ans. 10.32

Qu. What value of measured pKd is listed for Gly-Gly-NMe3PyA-F(4amPEG2NHDOTA-Lu)-hS(Pr)-W7N-Gly-K(COpipzaa)-Asp-D-Pro [Example C3] ?
Ans. > 10.39

Qu. What value of measured pKd is listed for Gly-Gly-NMePhe-F(4amDOTA-Lu)-Ahp-Trp-Gly-Tyr-Asp-D-Pro (cyclo(GG[NMeF][F(4amDOTA-Lu)][Ahp(2)]WGYD[dP]); also: Lu complex) [Example C16] ?
Ans. 9.40

Qu. What value of measured pKd is listed for Gly-Gly-NMePhe-F(4amPEG2NHDOTA-Ga)-Ahp-Trp-Gly-Tyr-Asp-D-Pro (cyclo(GG[NMeF][F(4amPEG2NHDOTA-Ga)][Ahp(2)]WGYD[dP]); also: Ga complex) [Example C49] ?
Ans. > 10.92

Qu. What value of measured pKd is listed for Pro-Gly-NMePhe-F(4amPEG2NHDOTA-Lu)-hS(Pr)-Trp-Gly-K(COpipzaa)-Asp-D-Pro (cyclo(PG[NMeF][F(4amPEG2NHDOTA-Lu)″][hS(Pr)]WGK(X4)D[dP])) [Example C20] ?
Ans. > 10.51

Qu. What value of measured pKd is listed for Glu-Gly-NMePhe-F(4amPEG2NHDOTA-Ga)-hS(Pr)-Trp-Gly-K(COpipzaa)-Asp-D-Pro (cyclo(EG[NMeF][F(4amPEG2NHDOTA-Ga)][hS(Pr)]WG[K(COpipzaa)]D[dP]); also: Ga complex of DOTA) [Example C45] ?
Ans. > 10.64

Qu. What value of measured pKd is listed for Glu-Gly-NMePhe-F(4amPEG2NHDOTA-Lu)-hS(Pr)-Trp-Gly-K(COpipzaa)-Asp-D-Pro (cyclo(EG[NMeF][F(4amPEG2NHDOTA-Lu)][hS(Pr)]WG[K(COpipzaa)]D[dP]); also: Lu complex of DOTA) [Example C5] ?
Ans. > 10.08

Qu. What value of measured pKd is listed for hSer-Gly-NMePhe-F(4amPEG2NHDOTA-Lu)-hS(Pr)-Trp-Gly-K(COpipzaa)-Asp-D-Pro [Example C4] ?
Ans. > 10.41

Qu. What value of measured pKd is listed for Glu-Gly-NMe3PyA-F(4amPEG2NHDOTA-Lu)-hS(Pr)-W7N-Gly-K(COpipzaa)-Asp-D-Pro [Example C7] ?
Ans. > 10.17

Qu. What value of measured pKd is listed for hSer-Gly-NMe3PyA-F(4amPEG2NHDOTA-Lu)-hS(Pr)-W7N-Gly-K(COpipzaa)-Asp-D-Pro [Example C6] ?
Ans. > 10.46

Qu. What value of measured pKd is listed for Gly-Gly-NMePhe-F(4amPEG2NHRDOTAGA-Ga)-hS(Pr)-Trp-Gly-K(COpipzaa)-AsI-D-Pro (cyclo(GG[NMeF][F(4amPEG2NHRDOTAGA-Ga)][hS(Pr)]WGK(COpipzaa)D[dP]); also: Ga complex) [Example C39] ?
Ans. > 10.62

Qu. What value of measured pKd is listed for Gly-Gly-NMePhe-F(4amPEG2NHDOTA-Lu)-Q(Pyrro(2CN4F2))-Trp-Gly-K(COpipzaa)-Asp-D-Pro (cyclo(GG[NMeF][F(4amPEG2NHDOTA-Lu)][Q(Pyrro(2CN4F2))]WGK(COpipzaa)D[dP]); also: Lu complex) [Example C19] ?
Ans. > 10.40

Qu. What value of measured pKd is listed for Gly-Gly-NMePhe-F(4OEtNHDOTA-Lu)-Ahp-Trp-Gly-Tyr-Asp-D-Pro (cyclo(GG[NMeF][F(4OEtNHDOTA-Lu)][Ahp(2)]WGYD[dP]); also: Lu complex of DOTA) [Example C23] ?
Ans. > 10.96

Qu. What value of measured pKd is listed for Gly-Gly-NMePhe-F(4OEtNHDOTA-Lu)-Ahp-Trp-Gly-3PyA(6NH2)-Asp-D-Pro (cyclo(GG[NMeF][F(4OEtNHDOTA-Lu)][Ahp(2)]WG[3Pal(6-NH2)]D[dP]); also: Lu complex of DOTA) [Example C24] ?
Ans. 10.46

Qu. What value of measured pKd is listed for Gly-Gly-NMePhe-F(4OEtNHRDOTAGA-Lu)-Ahp-Trp-Gly-Tyr-Asp-D-Pro (cyclo(GG[NMeF][F(4OEtNHRDOTAGA-Lu)][Ahp(2)]WGYD[dP]); also: Lu complex of DOTAGA) [Example C31] ?
Ans. > 11.00

Qu. What value of measured pKd is listed for Lys(DOTA-Lu)-Gly-NMePhe-Tyr-Ahp-Trp-Gly-Tyr-Asp-D-Pro (cyclo(K(DOTA(Lu))G[NMeF]Y[Ahp(2)]WGYD[dP]); also: Lu complex) [Example C22] ?
Ans. 9.19

Every entry's value here was drawn from patent US20250090699A1.
